// data source = the supplement of paper PMC10065799

- TARGET OF ASSAY: EPHB2 (UniProt P29323)
- Sequence (P29323 whole entry, looked up): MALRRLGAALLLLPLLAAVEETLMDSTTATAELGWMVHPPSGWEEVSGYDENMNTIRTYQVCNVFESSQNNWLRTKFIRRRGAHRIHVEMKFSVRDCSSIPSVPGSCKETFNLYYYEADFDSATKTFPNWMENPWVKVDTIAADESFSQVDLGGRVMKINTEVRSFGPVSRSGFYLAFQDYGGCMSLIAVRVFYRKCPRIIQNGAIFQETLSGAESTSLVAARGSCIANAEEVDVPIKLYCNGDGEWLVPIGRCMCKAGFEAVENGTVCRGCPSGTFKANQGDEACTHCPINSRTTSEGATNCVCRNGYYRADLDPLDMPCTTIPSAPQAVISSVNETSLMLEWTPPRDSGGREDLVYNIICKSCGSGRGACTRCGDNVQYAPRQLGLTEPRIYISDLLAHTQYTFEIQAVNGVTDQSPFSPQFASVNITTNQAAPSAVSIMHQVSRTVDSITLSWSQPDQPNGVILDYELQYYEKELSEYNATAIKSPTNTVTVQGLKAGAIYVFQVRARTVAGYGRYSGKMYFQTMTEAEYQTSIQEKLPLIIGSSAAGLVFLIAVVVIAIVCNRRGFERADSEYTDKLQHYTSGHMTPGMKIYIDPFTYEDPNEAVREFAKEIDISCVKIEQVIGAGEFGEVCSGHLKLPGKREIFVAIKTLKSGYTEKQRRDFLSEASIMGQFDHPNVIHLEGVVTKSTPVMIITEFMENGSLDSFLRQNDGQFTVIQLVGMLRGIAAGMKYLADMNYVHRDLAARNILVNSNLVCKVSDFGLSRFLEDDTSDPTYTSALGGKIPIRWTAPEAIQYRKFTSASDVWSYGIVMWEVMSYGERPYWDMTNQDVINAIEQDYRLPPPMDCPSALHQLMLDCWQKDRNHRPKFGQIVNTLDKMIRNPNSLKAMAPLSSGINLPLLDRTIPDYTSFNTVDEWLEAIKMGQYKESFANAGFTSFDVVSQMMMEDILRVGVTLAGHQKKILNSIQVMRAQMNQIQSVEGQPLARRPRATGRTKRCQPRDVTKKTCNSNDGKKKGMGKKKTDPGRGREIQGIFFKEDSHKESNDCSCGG
- ASSAY TEXT: phosphorylation enrichment, bacterial display (enrichment ratio); higher = better substrate or ligand; peptides without Tyr show the background;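 note: 11-residue human phosphosite peptides and single-mutation variants displayed on the E. coli surface, counted by deep sequencing, each peptide's frequency after selection divided by its frequency in the unselected input library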;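 note: frequency after pTyr selection over input frequency; kinase dosed for 20-30% of maximal phosphorylation in three min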
phosphorylation enrichment by entry:
The answer should be written as a number, with no unit following it.

1. RQRTAYFSLDT [CDH1_Y68] | 0.293
2. FSPGSNERETF [NF1_Y2192_Y2192N] | 0.605
3. FPMLNYKDIRK [CFAP221_Y798] | 0.384

Exercise: So what's the measured phosphorylation enrichment for this one? NDHHVYLEGTL [ALDOB_Y223]
Solution: 0.509
